# Test system: FXR:RXRa (NR concentration 270 nM, RXRa partner concentration 90 nM)
# experimentalDetails: PBM binding z-score (relative to random genomic background probes); higher = stronger binding; sequences stand for … in GC…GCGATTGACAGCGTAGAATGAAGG
assayEndpoint: PBM binding z-score

INSERT INTO results (biosequence, assayendpoint, testvalue) VALUES
  ('CGAACCAGGTCAAAGGACAGTGAAAGGCGACGTA', 'PBM binding z-score', 5.18),
  ('CCGAGTAGGTTACGAGGGGGAATTCAGTGCGAAT', 'PBM binding z-score', 0.932),
  ('ACTCGGGGGACAAAGGTCAGAGCTACGCCAGTGA', 'PBM binding z-score', 5.78),
  ('CCGAGTAGGTTACGAGGGGGCATTCCGTGCGAAT', 'PBM binding z-score', 2.81),
  ('CGAACTAGGTCACCAGGACAGTAAAGAGGTTGGA', 'PBM binding z-score', 4.28),
  ('CCGAGTAAGTTACGAGGGGGCATTCAGTGCGAAT', 'PBM binding z-score', 0.776),
  ('CCTACTGGGCCAAGGTCATTGACCAGTCAAAGCA', 'PBM binding z-score', 3.77);
